measured target: TEAD1 (Homo sapiens (Human))
Sequence (P28347 whole entry, species assumed): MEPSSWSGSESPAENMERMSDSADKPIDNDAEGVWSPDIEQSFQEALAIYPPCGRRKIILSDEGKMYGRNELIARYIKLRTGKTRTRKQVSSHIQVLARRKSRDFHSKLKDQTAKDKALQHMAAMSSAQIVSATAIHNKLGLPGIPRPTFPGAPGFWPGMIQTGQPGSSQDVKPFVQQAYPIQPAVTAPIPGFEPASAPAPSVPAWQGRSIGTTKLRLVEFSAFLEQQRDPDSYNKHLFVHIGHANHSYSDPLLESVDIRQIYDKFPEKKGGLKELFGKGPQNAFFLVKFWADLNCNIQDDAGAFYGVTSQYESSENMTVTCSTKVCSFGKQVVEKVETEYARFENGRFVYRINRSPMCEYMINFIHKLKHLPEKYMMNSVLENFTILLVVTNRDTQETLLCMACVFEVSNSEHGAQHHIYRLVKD
assay summary: TR-FRET lipid pocket probe competition assay (Lipid HTRF), TEAD1;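 note: His-tagged TEAD1 with biotinylated probe, detected via Europium anti-His and XL665 streptavidin, probe displacement lowers TR-FRET signal, IC50 from four-parameter nonlinear fit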
Type: binding
protocol conditions: 4 hours pre-incubation; read-out: Lipid HTRF TEAD1 IC50
Let's look at some compounds and their measured log10(IC50).
endpoint: log10(IC50) (log10 of the value in nM)

In [3]: df
Out[3]:
                                   compound  recorded_number
0  C=C(F)C(=O)N1CC(c2nn(-c3ccc(OC(F)(F)F)cc3)c3nccc(-c4cnn(C5COC5)c4)c23)C1 [Compound 175]             1.79
1  C=CC(=O)NCc1nn(-c2ccc(OC(F)(F)F)cc2)c2nccc(NCCO)c12 [Compound 36]             0.96
2  C=CC(=O)NCc1nn(-c2ccc(OC(F)(F)F)cc2)c2nccc(-c3c[nH]cn3)c12 [Compound 119]             2.20
3  C=C(C)C(=O)N1CC(c2nn(-c3ccc(OC(F)(F)F)cc3)c3nccc(CO)c23)C1 [Compound 22]             1.52
4  C=CC(=O)NCc1nn(-c2ccc(OC(F)(F)F)cc2)c2nccc(N3CCC[C@H](O)C3)c12 (stereo in doubt) [Compound 33]             1.40
5  C=CC(=O)NCc1nn(-c2ccc(OC(F)(F)F)cc2)c2nccc(N3CC(N(C)C)C3)c12 [Compound 107]             2.45
6  O=C(/C=C\Cl)NCc1nn(-c2ccc(OC(F)(F)F)cc2)c2nccc([C@@H](O)CO)c12 [Compound 26]             2.15

---

measured target: UniProt:Q15562
compounds and their reported IC50
endpoint: IC50 (nM)

>>> print(df.to_string())
                                   compound  endpoint  recorded_number
0  C=CC(=O)NCc1nn(-c2ccc(OC(F)(F)F)cc2)c2nccc(N3CC(N)C3)c12      IC50              780
1  C=C(F)C(=O)NCc1nn(-c2ccc(OC(F)(F)F)cc2)c2nccc([C@H](O)CO)c12      IC50              350
2  C=CC(=O)NCc1nn(-c2ccc(OC(F)(F)F)cc2)c2nccc(-c3cnn(CC(N)=O)c3)c12      IC50               40
3  C=CC(=O)NCc1nn(-c2ccc(OC(F)(F)F)cc2)c2nccc(N3CCC[C@H](O)C3)c12 (stereo in doubt)      IC50              110
4  C=CC(=O)NCc1nn(-c2ccc(OC(F)(F)F)cc2)c2nccc(N3CC(O)C3)c12      IC50               61
5  C=C(F)C(=O)N1CC(c2nn(-c3ccc(OC(F)(F)F)cc3F)c3nccc(CO)c23)C1      IC50              120
6  C=CC(=O)NCc1nn(-c2ccc(S(F)(F)(F)(F)F)cc2)c2cccc(CO)c12      IC50              310

---

Below are log10 IC50 values measured for TEAD2 (Homo sapiens (Human)).
endpoint: log10 IC50 (log10 of the value in nM)

>>> df
                                   molecule  recorded_number
0  O=C(/C=C/Cl)NCc1nn(-c2ccc(OC(F)(F)F)cc2)c2nccc(CO)c12 [Compound 37]             1.15
1  C=C(F)C(=O)N1CC(c2nn(-c3ccc(OC(F)(F)F)cc3)c3nccc(N4CC(O)(CO)C4)c23)C1 [Compound 75]             1.28
2  C=CC(=O)NCc1nn(-c2ccc(OC(F)(F)F)cc2)c2nccc(N3CC[C@@H](O)C3)c12 [Compound 47]             2.00
3  C=C(F)C(=O)N1CC(c2nn(-c3ccc(OC(F)(F)F)cc3)c3nccc(-c4cnn(C)c4)c23)C1 [Compound 158]             2.84
4  C=C(F)C(=O)N1CC(c2nn(-c3ccc(OC(F)(F)F)cc3)c3nccc(N4CC[C@@H](O)C4=O)c23)C1 [Compound 125]             2.94
5  C=C(F)C(=O)N1CC(c2nn(-c3ccc(OC(F)(F)F)cc3)c3nccc(N4CC([C@@H](O)CO)C4)c23)C1 [Compound 58]             1.85
6  CC#CC(=O)N1CC(c2nn(-c3ccc(OC(F)(F)F)cc3)c3nccc([C@@H](O)CO)c23)C1 [Compound 71]             0.72

---

measured target: TEAD2 (Homo sapiens (Human), UniProt Q15562);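 note: TR-FRET competition assay with His-tagged TEAD protein and a biotinylated lipid pocket probe, compound pre-incubated 30 min or 4 h at room temperature, displacement lowers signal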
Sequence (Q15562 whole entry, species assumed): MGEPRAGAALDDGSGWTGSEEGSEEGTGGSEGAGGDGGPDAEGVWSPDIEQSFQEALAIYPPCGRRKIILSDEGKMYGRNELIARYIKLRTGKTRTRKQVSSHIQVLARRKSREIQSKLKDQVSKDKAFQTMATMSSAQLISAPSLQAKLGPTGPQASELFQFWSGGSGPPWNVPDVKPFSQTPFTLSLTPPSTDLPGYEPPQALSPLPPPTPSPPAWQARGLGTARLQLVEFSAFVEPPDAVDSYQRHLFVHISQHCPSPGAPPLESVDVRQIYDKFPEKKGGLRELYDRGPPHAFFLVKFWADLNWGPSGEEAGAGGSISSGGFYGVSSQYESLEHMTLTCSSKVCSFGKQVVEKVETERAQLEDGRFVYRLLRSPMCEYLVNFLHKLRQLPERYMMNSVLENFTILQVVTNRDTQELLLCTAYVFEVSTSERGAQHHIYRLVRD
assay summary: biochemical
endpoint: log10 IC50 (log10 of the value in nM)

In [3]: df
Out[3]:
                                   compound  recorded_number
0  C=CC(=O)NCc1nn(-c2ccc(C(F)(F)F)cc2)c2nccc([C@@H](O)CO)c12 (stereo in doubt)             2.18
1  [2H]C([2H])=C([2H])C(=O)NCc1nn(-c2ccc(OC(F)(F)F)cc2)c2nccc(CO)c12             1.79
2  C=CC(=O)NCc1nn(-c2ccc(S(F)(F)(F)(F)F)cc2)c2nccc([C@H](O)CO)c12 (stereo in doubt)             1.82
3  C=CC(=O)NCc1nn(-c2ccc(OC(F)(F)F)cc2)c2nccc(N3CCOCC3)c12             1.60
4  [2H]C([2H])=C([2H])C(=O)NCc1nn(-c2ccc(OC(F)(F)F)cc2)c2nccc([C@H](O)CO)c12             1.56
5  C=CC(=O)NCc1nn(-c2cccc(OC(F)(F)F)c2)c2nccc([C@@H](O)CO)c12 (stereo in doubt)             1.95
6  C=CC(=O)NCc1nn(-c2ccc(S(F)(F)(F)(F)F)cc2)c2nccc([C@@H](O)CO)c12 (stereo in doubt)             2.43
7  C=CC(=O)NCc1nn(-c2cccc(OC(F)(F)F)c2)c2nccc([C@H](O)CO)c12 (stereo in doubt)             2.63
8  C=CC(=O)NCc1nn(-c2ccc(C(F)(F)F)cc2)c2nccc([C@H](O)CO)c12 (stereo in doubt)             2.72

---

Each entry below lists one item and its recorded IC50 value.
measured target: UniProt Q15561
Sequence (Q15561 whole entry, species assumed): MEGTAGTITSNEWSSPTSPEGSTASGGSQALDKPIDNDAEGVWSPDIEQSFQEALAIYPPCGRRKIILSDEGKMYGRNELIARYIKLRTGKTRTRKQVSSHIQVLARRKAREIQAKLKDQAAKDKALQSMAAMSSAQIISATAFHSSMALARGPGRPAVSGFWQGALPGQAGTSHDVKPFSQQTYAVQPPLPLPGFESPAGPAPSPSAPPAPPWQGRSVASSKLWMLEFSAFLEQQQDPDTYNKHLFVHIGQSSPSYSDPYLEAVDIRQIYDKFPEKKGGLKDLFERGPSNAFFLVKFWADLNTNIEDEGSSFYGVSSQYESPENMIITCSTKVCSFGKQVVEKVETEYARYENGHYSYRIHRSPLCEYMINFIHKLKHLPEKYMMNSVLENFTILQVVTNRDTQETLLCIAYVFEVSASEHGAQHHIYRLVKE
assay summary: TR-FRET lipid pocket probe competition assay (Lipid HTRF), TEAD4;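 note: His-tagged TEAD4 with biotinylated lipid-pocket probe, read by Europium anti-His and XL665 streptavidin, where probe displacement lowers the TR-FRET signal, IC50 from a four-parameter fit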
Assay type: binding
protocol conditions: 4 hours pre-incubation; read-out: Lipid HTRF TEAD4 IC50
endpoint: IC50 (nM)

In [3]: df
Out[3]:
                                      smiles  recorded_number
 0  C=CC(=O)N(C)Cc1nn(-c2ccc(OC(F)(F)F)cc2)c2nccc([C@H](O)CO)c12               12
 1  CC#CC(=O)N1CC(c2nn(-c3ccc(OC(F)(F)F)cc3)c3nccc([C@@H](O)CO)c23)C1               16
 2  C=C(Cl)C(=O)N1CC(c2nn(-c3ccc(OC(F)(F)F)cc3)c3nccc([C@H](O)CO)c23)C1             5.15
 3  C=CC(=O)NCc1nn(-c2ccc(OC(F)(F)F)cc2)c2nccc(OCCO)c12              4.4
 4  C=C(C)S(=O)(=O)N1CC(c2nn(-c3ccc(OC(F)(F)F)cc3)c3nccc([C@@H](O)CO)c23)C1               43
 5  C=CC(=O)NCc1nn(-c2ccc(OC(F)(F)F)cc2)c2nccc(-c3cnn(CC(N)=O)c3)c12              100
 6  C=C(F)C(=O)N1CC(c2nn(-c3ccc(OC(F)(F)F)cc3)c3nccc([C@@H](O)CO)c23)C1               13
 7  C=CC(=O)NCc1nn(-c2ccc(OC(F)(F)F)cc2)c2nccc([C@H]3COC(=O)O3)c12               55
 8  C=CC(=O)NCc1nn(-c2ccc(OC(F)(F)F)cc2)c2nccc([C@H]3C[C@@H](O)C3)c12               39
 9  C=C(F)C(=O)N1CC(c2nn(-c3ccc(OC(F)(F)F)cc3)c3nccc(-n4ccnc4)c23)C1               21
10  C=CC(=O)NCc1nn(-c2ccc(OC(F)(F)F)cc2)c2nccc(N3CC(N)C3)c12               52
11  C=CC(=O)NCc1nn(-c2ccc(OC(F)(F)F)cc2)c2nccc(N3CC[C@@H](O)C3)c12               11
12  C=CC(=O)NCc1nn(-c2ccc(OC(F)(F)F)cc2)c2nccc(N3CC(C#N)C3)c12              3.4
13  C=CC(=O)N1CC(c2nn(-c3ccc(OC(F)(F)F)cc3)c3nccc([C@@H](O)CO)c23)C1              2.9
14  C=CC(=O)N1CC(c2nn(-c3ccc(OC(F)(F)F)cc3)c3nccc([C@H](O)CO)c23)C1              4.5
15  C=CC(=O)NCc1nn(-c2ccc(OC(F)(F)F)cc2)c2nccc([C@@H](C)O)c12               13
16  C=C(F)C(=O)N1CC(c2nn(-c3ccc(OC(F)(F)F)cc3C)c3nccc(CO)c23)C1              100
17  C=CC(=O)NCc1nn(-c2ccc(OC(F)(F)F)cc2)c2nccc(-c3cnn(C4CC4)c3)c12             52.5
18  C=C(F)C(=O)N1CC(c2nn(-c3ccc(OC(F)(F)F)cc3)c3nccc(-c4cnn(C5CC5)c4)c23)C1              120
19  O=C(/C=C/CO)N1CC(c2nn(-c3ccc(OC(F)(F)F)cc3)c3nccc(N4CC(O)C4)c23)C1              3.6
20  O=C(/C=C\Cl)NCc1nn(-c2ccc(OC(F)(F)F)cc2)c2nccc([C@H](O)CO)c12              3.5
21  [2H]C([2H])=C([2H])C(=O)NCc1nn(-c2ccc(OC(F)(F)F)cc2)c2nccc(CO)c12               28
22  C=C(F)C(=O)N1CC(c2nn(-c3ccc(OC(F)(F)F)cc3)c3nccc(N4CC(F)(CO)C4)c23)C1              5.4
23  O=C(NCc1nn(-c2ccc(OC(F)(F)F)cc2)c2nccc(CO)c12)C1=CCC1               14
24  C=C(F)C(=O)N1CC(c2nn(-c3ccc(OC(F)(F)F)cc3)c3nccc(-c4cnn(CCOC)c4)c23)C1               77
25  C=CC(=O)NCc1nn(-c2ccc(OC(F)(F)F)cc2)c2nccc(-c3cnn(C)c3)c12               32
